Target or test system: T1, human MSLN-R2-his protein (human, UniProt Q13421 391-486)
T1 construct: Self-made in HEK293E cells; also called human MSLN-R2 protein; hMSLN-R2-his; not shown: His tag
T1 sequence (Q13421 other isoform, or with tags, fused parts or gaps): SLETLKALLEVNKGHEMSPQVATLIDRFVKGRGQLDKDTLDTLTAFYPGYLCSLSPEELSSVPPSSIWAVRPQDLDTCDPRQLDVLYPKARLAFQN
Assay: ELISA on coated antigen, antibody 0.0001 nM
Readout kind: OD450 (OD450)
Answer in OD450, number only, no unit symbol.

// solved cases for OD450 follow
Binder	Uom	OD450
S009-F2.21.4 (antibody, human IgG1, kappa, V domains shown, Human-murine chimeric antibody: murine VH/VL on human IgG1 heavy and kappa light constant regions) VH: EVQLQQSGPELVKPGASVKIPCKASGYTFTDYNMDWVKQSHGKSLEWIGDINPNNGGSIYNQRFKGKATLTVDKSSSTAYMELRSLTSEDSAVYYCARRAYYSTGYFDVWGTGTTVTVSS VL: QIVLTQSPALMSASPGEKVTITCSASSSISYMHWFQQKPGTSPKLWIYSTSTLASGVPARFSGSGSGTSYSLTISRMEAEDTATYYCQQRSSYPPTFGGGTKLEIKR	OD450	0.05
S009-F2.23.12 (antibody, human IgG1, kappa, V domains shown, Human-murine chimeric antibody: murine VH/VL on human IgG1 heavy and kappa light constant regions) VH: QVQLQQPGTELVKPGASVKLSCKASGYTFTNYWMHWVKQRPGQGLEWIGNINPSNGGPYYNERFRSKATLTVDKSSSTAYMQLSSLTSEDSAVYYCARPYYGSSYGYFDYWGQGTTLTVSS VL: DIQMTQSPSSLSASLGGKVTITCKASQDINKYIAWYQHKPGKGPRLLIHYTSELQPGIPSRFSGNGSGRDYSFSISNLEPEDIATYYCLQYANPLRTFGGGTKLEIKR	OD450	0.05
S009-F2.47.1 (antibody, human IgG1, kappa, V domains shown, Human-murine chimeric antibody: murine VH/VL on human IgG1 heavy and kappa light constant regions) VH: QVQLQQPGAELVKPGASVKLSCKASGYTFTSYWMHWVKQRPGQGLEWIGMIHPNSGSTNYNEKFKSKATLTVDKSSSTAYMQLSSLTSEDSAVYYCARPVVPYWYFDVWGTGTTVTVSS VL: DIVMTQSQKFMSTTVGDRVSITCKASQNVGTAVAWYQQKPGQSPKLLIYSASNRYTGVPDRFTGSGSGTDFTLTISNMQSEDLADYFCQQSSSYPLTFGAGTKLELKR	OD450	0.05

Attention now shifts to the item below.
Give its OD450 value. Item: S009-F2-56.12 (antibody, human IgG1, kappa, V domains shown, Human-murine chimeric antibody: murine VH/VL on human IgG1 heavy and kappa light constant regions) VH: DVQLQESGPGMVKPSQSLSLTCTVTGYSITSGYDWHWIRHFPGNKLEWMGYISYSGSTNYNPSLKSRISITHDTSKNHFFLKLKSVTTEDTATYYCARGTGPDYWGQGTTLTVSS VL: DIVMTQSQKFMSTSVGDRVSITCKASQNVRTAVAWYQQKPGQSPKALIHLPSNRHTGVPDRFTGSGSGTDFTLTISNVQSEDLADYFCLQHWNYPLTFGGGTKLEIKR
0.06
